Please provide measured inhibition at 500 µM for the entries that follow.
Biological target: UniProtKB P00374
Sequence (P00374 whole entry): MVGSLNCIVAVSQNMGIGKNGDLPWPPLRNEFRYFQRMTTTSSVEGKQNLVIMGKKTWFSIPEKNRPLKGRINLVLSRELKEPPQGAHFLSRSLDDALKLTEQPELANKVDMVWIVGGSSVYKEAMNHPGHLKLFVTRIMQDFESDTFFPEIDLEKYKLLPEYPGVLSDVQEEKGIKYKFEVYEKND
Assay: Dihydrofolate reductase enzyme inhibition assay
Format: biochemical
Conditions: read-out: % inhibition (0.5 mM)
Kindly provide the numeric value in % only, without the unit symbol.

Give inhibition at 500 µM for `O=[N+]([O-])c1cccc(NC(=S)NN=Cc2ccc(N3CCCC3)cc2)c1` tested on UniProtKB P00374.
75.6

Find the measured inhibition at 500 µM of `S=C(NCCN1CCOCC1)NN=Cc1ccc(N2CCCC2)cc1` with UniProtKB P00374 as test system.
76.9

GET inhibition at 500 µM where system = UniProtKB P00374 and item = `S=C(NN=Cc1ccc(N2CCCC2)cc1)Nc1ccc(Br)cc1`
90.8

GET inhibition at 500 µM where system = UniProtKB P00374 and item = `Cc1ccc(CNC(=S)NN=Cc2ccc(N3CCCC3)cc2)cc1`
79.8

GET inhibition at 500 µM where system = UniProtKB P00374 and item = `Cc1cccc(C)c1NC(=S)NN=Cc1ccc(N2CCCC2)cc1`
90.2

# assay system UniProtKB P00374: give inhibition at 500 µM of `Cc1ccc(NC(=S)NN=Cc2ccc(N3CCCC3)cc2)cc1`
89.5

Give measured inhibition at 500 µM for `Fc1ccccc1NC(=S)NN=Cc1ccc(N2CCCC2)cc1` (UniProtKB P00374).
77.3

Recall the reported inhibition at 500 µM of `O=[N+]([O-])c1ccc(NC(=S)NN=Cc2ccc(N3CCCC3)cc2)cc1` when tested on UniProtKB P00374.
74.1
